Molecular target: soluble SARS-CoV-2 spike protein variant 4PDS (SARS-CoV-2, UniProt P0DTC2 14-1208)
Parameter: Fold improvement over WT/WT. Scope: all listed entries.

Binder: combination of unmodified hu3A3 (WT; ven3A3) heavy chain with AM3A3-5 light chain (antibody, V domains shown) VH: QVQLVQSGAEVLKPGASVKLSCKASGFNIKDTYIHWLKQAPGQRLEWIGRIGPAIGNTIYAPKFQGKATITTDTSASTAYLELSSLRSEDTAVYYCARYYGSSYYYFDYWGQGTTVTVSS VL: DIVMTQSPLSVPVTPGEPVSISCRSSKSLLHSNGNTYLYWFLQKPGQSPQLLIARMSTLASGVPDRFSGSGSGTAFTLKISRVEAEDVGVYYCMQYLEYPLTFGAGTKLEIK
Fold improvement over WT/WT (fold): 63.7
//
Binder: combination of AM3A3-5 heavy chain with unmodified hu3A3 (WT; ven3A3) light chain (antibody, V domains shown) VH: QVQLVQSGAEVLKPGASVKLSCKASGFNIKDTYIHWLKQAPGQRLEWIGRIGPAIGNTIYAPKFQGKATITTDTSASTAYLELSSLRSEDTAVYYCARYYGYAYYYFDYWGQGTTVTVSS VL: DIVMTQSPLSVPVTPGEPVSISCRSSKSLLHSNGNTYLYWFLQKPGQSPQLLIYRMSNLASGVPDRFSGSGSGTAFTLKISRVEAEDVGVYYCMQYLEYPLTFGAGTKLEIK
Fold improvement over WT/WT (fold): 0.5
//
Binder: AM3A3-3 (affinity matured humanized 3A3) (antibody, V domains shown) VH: QVQLVQSGADVLKPGASVKLSCKASGFNIKNTYIHWLKQAPGQRLEWIGRIGPAIGNTIYAPKFQGKATITTDTSASTAYLELSSLRSEDTAVYYCARYYGSSYYYLDYWGQGTTVTVSS VL: DIVMTQSPLSVPVTPGEPVSISCRSSKSLHHSNGNTYLYWFLQKPGQSPQLLIYRMSNLASGVPDRFSGSGNGTAFTLKISRVEAEDVGVYYCMQYLEYPLTFDAGTKLEIK
Fold improvement over WT/WT (fold): 63.3

Recorded values, source patent US20240294611A1.
